# APPLIED_CONDITIONS: in 2-butanone, 323.15 K
QUANTITY: solubility (mole fraction)

INSERT INTO measurements (input_smiles, test_value) VALUES
  ('CCCCCCCC(=O)NCC(=O)O', 0.0951);

---

# APPLIED_CONDITIONS: in cyclohexanone, 308.05 K
QUANTITY: solubility (mole fraction)

INSERT INTO measurements (input_smiles, test_value) VALUES
  ('CCCCCCCC(=O)NCC(=O)O', 0.0866);

---

# APPLIED_CONDITIONS: in methanol, 298.15 K
QUANTITY: solubility (mole fraction)

INSERT INTO results (input_smiles, test_value) VALUES
  ('CCCCCCCC(=O)NCC(=O)O', 0.156);

---

# APPLIED_CONDITIONS: in ethyl formate, 308.05 K
QUANTITY: solubility (mole fraction)

INSERT INTO assay_data (input_smiles, quantity, test_value) VALUES
  ('CCCCCCCC(=O)NCC(=O)O', 'solubility (mole fraction)', 0.0186);

---

# APPLIED_CONDITIONS: in isopentanol, 288.35 K
QUANTITY: solubility (mole fraction)

INSERT INTO results (input_smiles, test_value) VALUES
  ('CCCCCCCC(=O)NCC(=O)O', 0.0543);

---

# APPLIED_CONDITIONS: in isopentanol, 278.15 K
QUANTITY: solubility (mole fraction)

INSERT INTO results (input_smiles, test_value) VALUES
  ('CCCCCCCC(=O)NCC(=O)O', 0.0347);

---

# APPLIED_CONDITIONS: in methanol, 308.05 K
QUANTITY: solubility (mole fraction)

INSERT INTO results (input_smiles, quantity, test_value) VALUES
  ('CCCCCCCC(=O)NCC(=O)O', 'solubility (mole fraction)', 0.263);

---

# APPLIED_CONDITIONS: in isobutanol, 308.05 K
QUANTITY: solubility (mole fraction)

INSERT INTO results (input_smiles, test_value) VALUES
  ('CCCCCCCC(=O)NCC(=O)O', 0.0919);

---

# APPLIED_CONDITIONS: in cyclohexanone, 303.15 K
QUANTITY: solubility (mole fraction)

INSERT INTO assay_data (input_smiles, quantity, test_value) VALUES
  ('CCCCCCCC(=O)NCC(=O)O', 'solubility (mole fraction)', 0.0656);

---

# APPLIED_CONDITIONS: in isopentanol, 298.15 K
QUANTITY: solubility (mole fraction)

INSERT INTO results (input_smiles, test_value) VALUES
  ('CCCCCCCC(=O)NCC(=O)O', 0.0805);

---

# APPLIED_CONDITIONS: in cyclohexanone, 278.15 K
QUANTITY: solubility (mole fraction)

INSERT INTO measurements (input_smiles, test_value) VALUES
  ('CCCCCCCC(=O)NCC(=O)O', 0.0149);

---

# APPLIED_CONDITIONS: in ethyl acetate, 278.15 K
QUANTITY: solubility (mole fraction)

INSERT INTO results (input_smiles, test_value) VALUES
  ('CCCCCCCC(=O)NCC(=O)O', 0.00301);

---

# APPLIED_CONDITIONS: in ethyl acetate, 273.15 K
QUANTITY: solubility (mole fraction)

INSERT INTO assay_data (input_smiles, test_value) VALUES
  ('CCCCCCCC(=O)NCC(=O)O', 0.00218);
